Provide the reported growth of each item.
test system: 786-0 renal; experiment: NCI-60 one-dose screen, 48 h (100 = growth as untreated, 0 = no growth, -100 = all killed); conditions: 10 µM
About 83,000 compounds went through this panel and 20% of them were active in at least one assay; those are over-represented in the sample as a whole.
Number only, in %; omit the unit.

IN: Note growth for the compound shown: c1csc(-c2cc(-c3cc(-c4cccs4)[nH]n3)n[nH]2)c1
OUT: 98.9

IN: Provide growth value for the following compound: COC(=O)Nc1nc2ccc(C(=O)c3ccc(F)cc3)cc2[nH]1
OUT: 26.4

IN: Read off the recorded growth for Cc1nc2ccccc2c2nnc(SCC(=O)N(Cc3ccccc3)c3ccccc3)n12
OUT: 103

IN: Supply reported growth belonging to this compound: CCC(C)(O)c1ccc(C)cc1 (configuration not stated)
OUT: 109

IN: Identify the reported growth for the following entry. O=C(O)c1cc([N+](=O)[O-])ccc1Cl
OUT: 99.2

IN: Return growth (reported value) for this compound: CCCCCCCCCCCCCC(=O)Oc1ccc[nH]c1=O
OUT: 89.7

IN: Output measured growth for this item: CC1(C)OC(=O)C(c2ccsc2)C(=O)O1
OUT: 108

IN: For the compound Cc1c(O)cnc2nn(-c3ccccc3)c(=N)n12 , give its reported growth.
OUT: 102

IN: Report growth, nothing else, for this compound: COc1cc(-c2ccc(NC(=O)NC3CC3)c(OC)c2)ccc1NC(=O)NC1CC1
OUT: 74

IN: Give the reported growth for this compound. COc1cc(C(=O)N/N=C/c2cccc([N+](=O)[O-])c2)cc(OC)c1OC
OUT: 78.2

IN: Tell us which growth value is on record for O=C(NCc1ccco1)Nc1c(Cl)cc(Cl)cc1Cl
OUT: 97.2

IN: Provide one value: measured growth of CC(=O)c1ccc(C(C)(C)C)cc1
OUT: 100

Just for reference, PubChem BioAssay (NCI) is where these values come from.
